# Test system: SNB-75
# Experiment: NCI tumour cell line growth inhibition, 48 h
Activity calls are given as the source filed them. No stated cut-off is given here; in the data, active = GI50 up to about 1.1 µM and inactive = higher.
Choose one outcome from this list and give only that: 1.0 (active), 0.0 (inactive)

Compound	Assigned Class
COC(OC)c1cc2c(cc1C(=O)[C@@]13CCC[C@@H]1NC(=O)O3)OCO2	0.0
COc1ccc(C2SC(=N)Nc3c2c(C)nn3C(=O)c2ccncc2)cc1OC (configuration not stated)	0.0
Cc1cn(C2CC(N=[N+]=[N-])C(CO)O2)c(=O)n(CCCCO)c1=O (configuration not stated)	0.0
COc1ccc(/C=C/C(=O)C(C)(C)C)cc1OC	0.0
O=[N+]([O-])C1(CO)COC2(OC1)c1ccccc1-c1ccccc12	0.0
O=C(CSCC(=O)N/N=C\c1ccccc1F)N/N=C\c1ccccc1F	0.0
CC1(C)CCC[C@@]2(C)C1CC[C@H]1CC(O)C3(C)CCC12C3 (some centres not stated)	0.0
CN(CCCNC(=O)c1c2ccc3ccccc3c2nn1C)CCCNC(=O)c1c2ccc3ccccc3c2nn1C	0.0

Continue with the compound presented below.
Please let me know the test result on file for CCCCCCCC(=O)OC(CBr)COC(=O)C(C)(C)C (configuration not stated) .
0.0

* * *

# Tested on: SF-268
# Experiment: NCI tumour cell line growth inhibition, 48 h
Calls of active or inactive are those of the source. No stated cut-off is given here; in the data, active = GI50 up to about 1.1 µM and inactive = higher.
Choose one outcome from this list and give only that: active, inactive

Please let me know the test result on file for CC1=NN(C(=O)CC(=O)Nc2ccccc2Cl)C(=O)C1/N=N/c1ccc(C(=O)O)cc1 (centres undefined) .
inactive

Another: `S=C(Nc1c2c(nc3ccccc13)CCCC2)Nc1c2c(nc3ccccc13)CCCC2`
inactive

Another: CC(NC1=CC(=O)c2ncccc2C1=O)C(O)c1ccccc1 (centres undefined)
inactive

Another: `O=c1c2ccccc2nc2sc(/N=C/C=C/c3ccccc3)nn12`
inactive

Another: `COc1ccc(-c2cc(O)c3cc4c(cc3n2)OCO4)cc1`
inactive

Another: `CS(=O)(=O)NC12CCC(c3ccccc31)c1ccccc12`
inactive

Another: `Cc1nc(C(N)=S)sc1C(=O)/C=C/c1cccc(O)c1`
inactive

Another: COc1ccc(/C=C2\CCC(CN(C)C)C2=O)cc1OC (centres undefined)
inactive

Another: `NCC[Se][Se]CCN`
inactive

Another: `Cc1nn(-c2cc(Cl)ccc2[N+](=O)[O-])c(C)c1Cl`
inactive

Another: `O=[N+]([O-])c1cccc2nc3ccccc3c(NCCN(CCO)CCO)c12`
active

Another: `Cc1coc2c1C[C@@]1(C)[C@H](CCC[C@@H]1C)[C@H]2O`
inactive

Another: `N#C/C(=C\c1cccc(Br)c1)c1nc2ccccc2c(=O)[nH]1`
inactive

Another: `S=C(NN=C1NCCCCN1)Nc1ccccc1`
inactive

* * *

# Test system: UACC-257
# Experiment: NCI tumour cell line growth inhibition, 48 h
The source made the active and inactive calls. Cut-off read from the data, not from the text of the source: active = GI50 up to about 1.1 µM and inactive = higher.
Metric: GI50

Some solved cases for reference:
Molecule	Study System	Metric	Val
COc1cc(C(=O)CBr)c(OC)cc1C	UACC-257	GI50	> 100 µM (inactive)
O=C(NCc1ccccc1)c1c(O)nc2ccccc2c1O	UACC-257	GI50	> 100 µM (inactive)
C[C@]12CC(c3ccccc3O1)C(C(=O)Nc1nc(C34CC5CC(CC(C5)C3)C4)cs1)C(=O)N2 (some centres not stated)	UACC-257	GI50	> 100 µM (inactive)
CN1CCN(C(=O)CCNC(=O)Cc2ccc(C(=O)c3ccccc3)cc2)CC1	UACC-257	GI50	> 100 µM (inactive)
C/C(=N\Nc1nc2ccccc2n1C)c1cnccn1	UACC-257	GI50	0.0483 µM (active)

# GI50 lookup, item CC1(C2CCC3(C)C(C2)C3Sc2ccccc2)OCCO1 (configuration not stated)
17.5 µM (inactive)

Another: N=C(N)Nc1ccc(CC(N)C(=O)O)cc1 (configuration not stated)
> 12.5 µM (inactive)

* * *

# System: KM12
# Experiment: NCI tumour cell line growth inhibition, 48 h
Active and inactive are the calls of the source. No stated cut-off is given here; in the data, active = GI50 up to about 1.1 µM and inactive = higher.
Metric: GI50

Some solved cases for reference:
Compound	Val
O=c1[nH]c2ccccc2c(=O)c2cc3ccccc3cc12	97.3 µM (inactive)
C#CCCCCC#Cc1ccccc1C(=O)OC	58.2 µM (inactive)
COC(=O)CCC(=O)NC1c2cccc3cccc(c23)Cn2c(=O)n(C)c(=O)n21 (stereo not given)	> 100 µM (inactive)
Cc1c2ccccc2c(CO)c2cc(F)c3ccccc3c12	18.8 µM (inactive)
N#C/C(=C\n1ccc(=O)[nH]c1=S)C(N)=O	> 100 µM (inactive)

Test system KM12; read-out GI50; what value for COC(=O)C1=C(O)C(C(=O)OC)[C@]2(O)[C@H](C(=O)OC)[C@H]1C[C@@H](c1ccc(C(F)(F)F)cc1)[C@H]2C(=O)OC (stereo not given in full) ?
5.37 µM (inactive)

Another: `Cc1[nH]c(=O)nc(NCCNCCO)c1C(=O)Nc1c2ccccc2nc2ccccc12`
> 100 µM (inactive)

Another: `O=C1C=C(Nc2ccccc2C(=O)CC(=O)C(=O)Nc2cccc([N+](=O)[O-])c2)c2ccccc2C1=O`
36.7 µM (inactive)

Another: `CC1(C)OC[C@@]2([C@@H]3CC[C@@H](C3)C2(C)C)N1O`
> 100 µM (inactive)

Another: `CC(C)/C(Cl)=N\OC(=O)Nc1ccc(F)cc1`
16.6 µM (inactive)

* * *

# Test system: RXF 393
# Experiment: NCI tumour cell line growth inhibition, 48 h
Active and inactive are the calls of the source. Rule as the data show it: active = GI50 up to about 1.1 µM and inactive = higher.
Metric: GI50

Test system RXF 393; read-out GI50; what value for `COc1cc(/C=C/c2ccc(OC(C)=O)cc2)cc(OC)c1OC` ?
11.1 µM (inactive)

Another: `CC(=O)Oc1ccc(CO)cc1OC(C)=O`
> 100 µM (inactive)

Another: CC1OC(n2cc(F)c(=O)[nH]c2=O)CCC1=O (stereo unspecified)
> 100 µM (inactive)

Another: COC1(C)OC[C@@]2(C)OC(C)C1(C)C2O[Si](C(C)C)(C(C)C)C(C)C (stereo partly specified)
27 µM (inactive)

Another: `Clc1cc(OC23CC4CC(CC(C4)C2)C3)nc(Cl)n1`
27.8 µM (inactive)

Another: `CCn1c2ccccc2c(=O)c2c(OC)ccc(OC)c21`
32.5 µM (inactive)

* * *

GI50 by entry:
# Tested on: K562
# Experiment: NCI tumour cell line growth inhibition, 48 h
Calls of active or inactive are those of the source. Rule as the data show it: active = GI50 up to about 1.1 µM and inactive = higher.

Some solved cases for reference:
Molecule	Val
COC(=O)c1cnc(Cl)c([N+](=O)[O-])c1	2.44 µM (inactive)
O=c1[nH]c(Nc2nc3ccccc3[nH]2)nc(O)c1Cc1ccccc1	> 100 µM (inactive)

# GI50 lookup, item CCC1=CCN(c2cc(C)ccn2)OC1c1ccccc1 (stereo not drawn)
47.4 µM (inactive)

* * *

# Test system: A498
# Experiment: NCI tumour cell line growth inhibition, 48 h
The source made the active and inactive calls. Rule as the data show it: active = GI50 up to about 1.1 µM and inactive = higher.
GI50 by entry:

Some solved cases for reference:
Compound	GI50
NCC[Se][Se]CCN	9.18 µM (inactive)
CN1CCC(C(=O)NNc2ccccc2)CC1	> 100 µM (inactive)
CC(C)(C)[Si](C)(C)OCC1OC(n2ccc(=O)[nH]c2=O)C(O[Si](C)(C)C(C)(C)C)/C1=C/C#N (centres undefined)	10 µM (inactive)

Test system A498; read-out GI50; what value for Cc1ccc(S(=O)(=O)OC2C3OC(C)(C)OC3OC2C(c2cc(O)c3c(c2O)C(=O)c2ccccc2C3=O)c2cc(O)c3c(c2O)C(=O)c2ccccc2C3=O)cc1 (centres undefined) ?
> 10 µM (inactive)

Another: `O=c1[nH]nc(Cc2ccccc2)n1/N=C/c1ccco1`
45.9 µM (inactive)

Another: `O=C1C=C(Br)C(=O)C(Br)=C1`
> 100 µM (inactive)

Another: CCOC(=O)C(C(=O)OCC)C(=S)NC1OC(COC(C)=O)C(OC(C)=O)C(OC(C)=O)C1OC(C)=O (centres undefined)
> 100 µM (inactive)

Another: `N=C(N)N/N=C/c1cnn(C(=N)N)c1`
> 100 µM (inactive)

* * *

# Tested on: HOP-92
# Experiment: NCI tumour cell line growth inhibition, 48 h
Active and inactive are the calls of the source. No stated cut-off is given here; in the data, active = GI50 up to about 1.1 µM and inactive = higher.
GI50 by entry:

Some solved cases for reference:
Molecule	Val
COc1ccc(/C=C2\CCC(CN(C)C)C2=O)cc1OC (stereo unspecified)	5.69 µM (inactive)
C#CCn1ncc2c(SC)ncnc21	> 100 µM (inactive)
C=C1C(=O)O[C@@H]2C[C@@]3(C)CC(=O)C=C(C)[C@@H]3C[C@H]12	16.3 µM (inactive)
COc1ccc(/C=C/C(=O)c2sc(Nc3ccc([N+](=O)[O-])cc3)nc2C)cc1	20.8 µM (inactive)

Next:
Test system HOP-92; read-out GI50; what value for `Cc1c(C(C)C)cc(OCCO)cc1C(C)C` ?
19.8 µM (inactive)
